src = patent US11166942B2

Listing of recorded inhibition at 1 µM by entry.
tested on: ATF4; test: ATF4 expression inhibition assay (ATF4 5'UTR luciferase reporter, Tg-stressed HEK293T cells); type: cell-based, human; settings: Homo sapiens, HEK-293T, 3 h, 1 μM test compound, 100 nM thapsigargin, 3 hours, HEK293T ATF4 luciferase reporter; read-out: % ATF4 inhibition at 1 μM
METRIC_NAME: inhibition at 1 µM

COMPOUND | TESTED_ON | RESULT
COc1ccc2oc(C(=O)NN3CCC(NC[C@@H](O)COc4ccc(Cl)c(F)c4)CC3)cc2c1 [Compound 69] | ATF4 | 78.1%
O=C(NC1CCN(NCC(O)COc2ccc(Cl)c(F)c2)CC1)c1cc2cc(Cl)ccc2o1 (stereo not drawn) [Compound 26] | ATF4 | 49.4%
O=C(NN1CCN(C[C@@H](O)COc2ccc(Cl)c(F)c2)CC1)c1ccc(Cl)cn1 [Compound 64] | ATF4 | 56.6%
O=C(NN1CCC(NC[C@H](O)COc2ccc(Cl)c(F)c2)CC1)c1ccc2cc(Cl)ccc2n1 [Compound 57] | ATF4 | 39.8%
O=C(COc1ccc(Cl)c(F)c1)NC1CCN(NC(=O)[C@H]2CNc3cc(Cl)ccc3O2)CC1 [Compound 46] | ATF4 | 99.3%
O=C(NN1CCC(NC[C@@H](O)COc2ccc(Cl)c(F)c2)CC1)c1ccc2cc(Cl)ccc2n1 [Compound 56] | ATF4 | 75.6%
